Test system: NCI-H2009
assay.name: relative viability (nuclei count vs DMSO), 5 days (fraction); higher = more cells survive
condition.details: first compound 50 µM
# relative viability per entry
observed.property: relative viability

molecule="O=C(O)CCCCC(CCSCc1ccccc1)SCc1ccccc1 (stereo unspecified) [CPI-613] + Nc1ncn([C@H]2C[C@H](O)[C@@H](CO)O2)c(=O)n1 [Decitabine] (partner 2 µM)" observed_property="relative viability" assay_result=0.385
molecule="O=C(O)CCCCC(CCSCc1ccccc1)SCc1ccccc1 (stereo unspecified) [CPI-613] + N=C(N)NC(=N)NCCc1ccccc1 [Phenformin] (partner 250 µM)" observed_property="relative viability" assay_result=0.42
molecule="O=C(O)CCCCC(CCSCc1ccccc1)SCc1ccccc1 (stereo unspecified) [CPI-613] + C[C@@H](Oc1cc(-c2cnn(C3CCNCC3)c2)cnc1N)c1c(Cl)ccc(F)c1Cl [Crizotinib] (partner 1 µM)" observed_property="relative viability" assay_result=1.04
molecule="O=C(O)CCCCC(CCSCc1ccccc1)SCc1ccccc1 (stereo unspecified) [CPI-613] + CC(=O)c1c(C)c2cnc(Nc3ccc(N4CCNCC4)cn3)nc2n(C2CCCC2)c1=O [Palbociclib] (partner 0.5 µM)" observed_property="relative viability" assay_result=0.221
molecule="O=C(O)CCCCC(CCSCc1ccccc1)SCc1ccccc1 (stereo unspecified) [CPI-613] + CC1(C)CCC(c2ccc(Cl)cc2)=C(CN2CCN(c3ccc(C(=O)NS(=O)(=O)c4ccc(N[C@H](CCN5CCOCC5)CSc5ccccc5)c(S(=O)(=O)C(F)(F)F)c4)cc3)CC2)C1 [Navitoclax] (partner 0.5 µM)" observed_property="relative viability" assay_result=1.11
molecule="O=C(O)CCCCC(CCSCc1ccccc1)SCc1ccccc1 (stereo unspecified) [CPI-613] + Cc1nc(Nc2ncc(C(=O)Nc3c(C)cccc3Cl)s2)cc(N2CCN(CCO)CC2)n1 [Dasatinib] (partner 0.075 µM)" observed_property="relative viability" assay_result=0.278

* * *

Tested on: NCI-H650
assay.name: relative viability (nuclei count vs DMSO), 5 days (fraction); higher = more cells survive
condition.details: first compound 0.02 µM
Listed here: items and their measured relative viability.
observed.property: relative viability

compound="CC(=O)O[C@@]12CO[C@@H]1C[C@H](O)[C@@]1(C)C(=O)[C@H](O)C3=C(C)[C@@H](OC(=O)[C@H](O)[C@@H](NC(=O)OC(C)(C)C)c4ccccc4)C[C@@](O)([C@@H](OC(=O)c4ccccc4)[C@H]21)C3(C)C [Docetaxel] + CC(=O)c1c(C)c2cnc(Nc3ccc(N4CCNCC4)cn3)nc2n(C2CCCC2)c1=O [Palbociclib] (partner 0.5 µM)" observed_property="relative viability" assay_result=0.193
compound="CC(=O)O[C@@]12CO[C@@H]1C[C@H](O)[C@@]1(C)C(=O)[C@H](O)C3=C(C)[C@@H](OC(=O)[C@H](O)[C@@H](NC(=O)OC(C)(C)C)c4ccccc4)C[C@@](O)([C@@H](OC(=O)c4ccccc4)[C@H]21)C3(C)C [Docetaxel] + CC(C)C[C@H](NC(=O)[C@H](Cc1ccccc1)NC(=O)c1cnccn1)B(O)O [Bortezomib] (partner 0.002 µM)" observed_property="relative viability" assay_result=0.196
compound="CC(=O)O[C@@]12CO[C@@H]1C[C@H](O)[C@@]1(C)C(=O)[C@H](O)C3=C(C)[C@@H](OC(=O)[C@H](O)[C@@H](NC(=O)OC(C)(C)C)c4ccccc4)C[C@@](O)([C@@H](OC(=O)c4ccccc4)[C@H]21)C3(C)C [Docetaxel] + C[C@@H](Oc1cc(-c2cnn(C3CCNCC3)c2)cnc1N)c1c(Cl)ccc(F)c1Cl [Crizotinib] (partner 1 µM)" observed_property="relative viability" assay_result=0.204
